From: paper PMC12686497

- test.target: NK1R (hTACR1-HEK293 cells) (Homo sapiens, UniProt P25103)
- Sequence (P25103 whole entry): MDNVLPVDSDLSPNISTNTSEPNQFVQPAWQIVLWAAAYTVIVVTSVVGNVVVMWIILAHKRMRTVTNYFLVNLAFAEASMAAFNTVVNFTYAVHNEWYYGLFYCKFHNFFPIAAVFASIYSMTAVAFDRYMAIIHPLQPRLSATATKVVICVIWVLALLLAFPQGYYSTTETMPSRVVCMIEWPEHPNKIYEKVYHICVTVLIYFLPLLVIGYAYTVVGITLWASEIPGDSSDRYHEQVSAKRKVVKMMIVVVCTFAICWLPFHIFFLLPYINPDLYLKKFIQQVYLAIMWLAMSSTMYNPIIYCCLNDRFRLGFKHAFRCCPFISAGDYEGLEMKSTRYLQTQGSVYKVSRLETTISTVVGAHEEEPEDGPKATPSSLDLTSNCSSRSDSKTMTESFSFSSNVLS
- experimental.protocol: FLIPR calcium 6 assay, SP-induced intracellular calcium mobilization
- condition.label: 1 nM SP
pIC50: −log10 of the molar value.

| compound | pIC50 |
| --- | --- |
| Cc1ccc2[nH]c(-c3ccc(Br)cc3)c(CCC(=O)NC(c3ccc(C(C)C)cc3)C(C)C)c2c1 (stereo not shown) | 7.10 |
